# reported IC50; entries follow
# target: Tyrosine-protein phosphatase non-receptor type 5 (Homo sapiens, UniProt P54829)
# Sequence (P54829 whole entry): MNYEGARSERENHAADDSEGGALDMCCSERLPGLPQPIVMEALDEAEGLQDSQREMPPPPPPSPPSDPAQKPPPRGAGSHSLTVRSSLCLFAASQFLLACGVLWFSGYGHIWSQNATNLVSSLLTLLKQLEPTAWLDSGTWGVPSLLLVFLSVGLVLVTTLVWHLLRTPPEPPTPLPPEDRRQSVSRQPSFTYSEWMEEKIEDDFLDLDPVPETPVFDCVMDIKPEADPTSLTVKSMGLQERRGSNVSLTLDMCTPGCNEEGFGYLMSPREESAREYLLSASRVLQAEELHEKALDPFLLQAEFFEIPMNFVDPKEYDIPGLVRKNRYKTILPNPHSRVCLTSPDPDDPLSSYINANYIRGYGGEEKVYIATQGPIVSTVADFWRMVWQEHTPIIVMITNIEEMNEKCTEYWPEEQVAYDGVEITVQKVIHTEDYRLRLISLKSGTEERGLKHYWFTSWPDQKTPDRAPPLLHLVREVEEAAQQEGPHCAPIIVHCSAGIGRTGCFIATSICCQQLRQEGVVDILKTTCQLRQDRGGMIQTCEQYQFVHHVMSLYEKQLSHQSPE
readout: IC50 (µM)

• COc1ccc(S(=O)(=O)Nc2ccc(-c3nc4cc(NS(=O)(=O)c5ccc(OC)cc5)ccc4o3)cc2)cc1 = 15
• O=S(=O)(Nc1ccc(-c2nc3ccccc3o2)cc1)c1ccc(F)c(C(F)(F)F)c1 = 43
• O=S(=O)(Nc1ccc(-c2nc3cc(NS(=O)(=O)c4cccc5nsnc45)ccc3o2)cc1)c1cccc2nsnc12 = 17
• O=S(=O)(Nc1ccc(-c2nc3cc(NS(=O)(=O)c4ccc(Cl)s4)ccc3o2)cc1)c1cccc(C(F)(F)F)c1 = 16
• COC(=O)c1ccc(S(=O)(=O)Nc2ccc(-c3nc4cc(NS(=O)(=O)c5ccc(C(=O)OC)cc5)ccc4o3)cc2)cc1 = 22
• Cc1ccccc1S(=O)(=O)Nc1ccc(-c2nc3cc(NS(=O)(=O)c4ccccc4C)ccc3o2)cc1 = 14

----------
# target: Phosphotyrosine protein phosphatase (Mycobacterium tuberculosis, UniProt A0A045ISB3)
# Sequence (A0A045ISB3 whole entry): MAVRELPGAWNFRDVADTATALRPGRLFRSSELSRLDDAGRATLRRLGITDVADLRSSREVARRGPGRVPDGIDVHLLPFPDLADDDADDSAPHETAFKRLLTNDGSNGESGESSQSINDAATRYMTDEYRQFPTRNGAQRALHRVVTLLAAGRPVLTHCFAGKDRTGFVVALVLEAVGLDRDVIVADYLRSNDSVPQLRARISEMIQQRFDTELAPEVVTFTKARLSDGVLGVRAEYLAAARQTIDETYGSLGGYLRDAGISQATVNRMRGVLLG
readout: IC50

- O=S(=O)(Nc1ccc(-c2nc3cc(NS(=O)(=O)c4ccc(Cl)s4)ccc3o2)cc1)c1ccc(Cl)s1: 2.3 µM
- O=S(=O)(Nc1ccc(-c2nc3ccccc3o2)cc1)c1ccccc1Cl: 47 µM
- O=S(=O)(Nc1ccc(-c2nc3ccccc3o2)cc1)c1cccc(Cl)c1: 43 µM
- CS(=O)(=O)Nc1ccc2oc(-c3ccc(NS(=O)(=O)c4ccc(Cl)s4)cc3)nc2c1: 46 µM
- O=S(=O)(Nc1ccc(-c2nc3ccccc3o2)cc1)c1ccc(Cl)cc1: 46 µM

----------
# test_description: Cytotoxicity against human HEK293 cells assessed as reduction in cell viability after 48 hrs by Alamar blue assay
# Format: cell-based
Rule: CC50 at 48 h below 70 µM gives T. Equal to or above 70 µM gives F.

* O=S(=O)(Nc1ccc2oc(-c3ccccc3)nc2c1)c1ccccc1 | T
* Cc1ccccc1S(=O)(=O)Nc1ccc2oc(-c3ccccc3)nc2c1 | T
* O=[N+]([O-])c1cc(S(=O)(=O)Nc2ccc3oc(-c4ccccc4)nc3c2)ccc1Cl | F
* COc1ccc(S(=O)(=O)Nc2ccc3oc(-c4ccccc4)nc3c2)cc1 | F
* Cc1ccc(S(=O)(=O)Nc2ccc3oc(-c4ccccc4)nc3c2)cc1 | F
* O=S(=O)(Nc1ccc(-c2nc3ccccc3o2)cc1)c1ccc(O)cc1 | F
* COc1ccccc1S(=O)(=O)Nc1ccc(-c2nc3ccccc3o2)cc1 | F
* O=S(=O)(Nc1ccc2oc(-c3ccccc3)nc2c1)c1cccs1 | F

----------
# target: Tyrosine-protein phosphatase non-receptor type 1 (Homo sapiens, UniProt P18031)
# Sequence (P18031 whole entry): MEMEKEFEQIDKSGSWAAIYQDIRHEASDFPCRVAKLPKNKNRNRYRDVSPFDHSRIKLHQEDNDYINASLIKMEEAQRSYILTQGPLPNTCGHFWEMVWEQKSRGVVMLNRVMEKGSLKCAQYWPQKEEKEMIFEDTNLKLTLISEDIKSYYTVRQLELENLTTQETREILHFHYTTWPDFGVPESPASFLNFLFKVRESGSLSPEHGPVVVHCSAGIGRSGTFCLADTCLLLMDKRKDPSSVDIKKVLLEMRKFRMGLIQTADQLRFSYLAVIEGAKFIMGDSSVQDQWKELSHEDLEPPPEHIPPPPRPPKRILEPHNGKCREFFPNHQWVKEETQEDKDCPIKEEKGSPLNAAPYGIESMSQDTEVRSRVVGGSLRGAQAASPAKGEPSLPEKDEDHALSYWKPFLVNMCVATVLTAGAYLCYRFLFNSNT
Rule: IC50 below 10 µM gives y. Equal to or above 10 µM gives n.

* O=S(=O)(Nc1ccc(-c2nc3cc(NS(=O)(=O)c4ccc(Cl)s4)ccc3o2)cc1)c1ccc2ncsc2c1 | y
* COc1ccc(S(=O)(=O)Nc2ccc(-c3nc4cc(NS(=O)(=O)c5ccc(Cl)s5)ccc4o3)cc2)cc1 | n
* CS(=O)(=O)Nc1ccc(-c2nc3ccccc3o2)cc1 | n
* O=S(=O)(Nc1ccc2oc(-c3ccccc3)nc2c1)c1ccc(F)cc1 | n
* O=S(=O)(Nc1ccc2oc(-c3ccccc3)nc2c1)c1ccccc1 | n
* C=Cc1ccc(S(=O)(=O)Nc2ccc3oc(-c4ccccc4)nc3c2)cc1 | n
* CCc1ccc(S(=O)(=O)Nc2ccc3oc(-c4ccccc4)nc3c2)cc1 | n
* O=[N+]([O-])c1cc(S(=O)(=O)Nc2ccc3oc(-c4ccc(NS(=O)(=O)c5ccc(Cl)s5)cc4)nc3c2)ccc1Cl | y
* O=S(=O)(Nc1ccc(-c2nc3cc(NS(=O)(=O)c4cccs4)ccc3o2)cc1)c1cccs1 | n

----------
# target: HSP60/HSP10 (Homo sapiens, UniProt P10809)
# Sequence (P10809 whole entry): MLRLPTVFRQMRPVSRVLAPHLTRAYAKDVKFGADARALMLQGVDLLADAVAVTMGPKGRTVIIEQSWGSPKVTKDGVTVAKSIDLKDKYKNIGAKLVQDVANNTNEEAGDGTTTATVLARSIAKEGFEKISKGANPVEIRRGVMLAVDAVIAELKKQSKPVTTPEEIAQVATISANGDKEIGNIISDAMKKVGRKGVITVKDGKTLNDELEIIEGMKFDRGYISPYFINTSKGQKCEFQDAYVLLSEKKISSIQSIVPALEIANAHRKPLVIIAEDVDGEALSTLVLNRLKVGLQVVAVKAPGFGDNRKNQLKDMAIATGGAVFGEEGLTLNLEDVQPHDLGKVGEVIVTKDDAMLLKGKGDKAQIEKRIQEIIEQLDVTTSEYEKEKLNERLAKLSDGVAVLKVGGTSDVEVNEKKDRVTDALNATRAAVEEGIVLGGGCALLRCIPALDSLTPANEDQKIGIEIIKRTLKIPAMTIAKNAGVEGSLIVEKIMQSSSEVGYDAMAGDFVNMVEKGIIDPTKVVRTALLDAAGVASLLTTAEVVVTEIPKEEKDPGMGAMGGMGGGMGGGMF
# Sequence (P61604 whole entry, further chain): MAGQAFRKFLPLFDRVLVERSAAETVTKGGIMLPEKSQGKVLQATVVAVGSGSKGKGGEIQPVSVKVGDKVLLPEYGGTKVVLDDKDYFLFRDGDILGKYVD
# test_description: Inhibition of human HSP60 expressed in Escherichia coli Rosetta 2(DE3)/human HSP10 expressed in Escherichia coli Rosetta 2(DE3) pLysS cells assessed as reduction in HSP60/HSP10-mediated denatured pig heart mitochondrial MDH refolding by measuring MDH enzyme activity using sodium mesoxalate as substrate after 40 to 60 mins by spectrometric analysis
readout: IC50

- O=S(=O)(Nc1ccc(-c2nc3ccccc3o2)cc1)c1cccc(F)c1: 71 µM
- O=S(=O)(Nc1ccc(-c2nc3ccccc3o2)cc1)c1ccccc1F: > 100 µM
- O=S(=O)(Nc1ccc(-c2nc3ccccc3o2)cc1)c1cccc(O)c1: 62 µM
- O=S(=O)(Nc1ccc2oc(-c3ccc(NS(=O)(=O)c4ccc(Cl)s4)cc3)nc2c1)c1ccccc1: 9 µM
- O=S(=O)(Nc1ccc2oc(-c3ccccc3)nc2c1)c1ccc(Cl)c(Cl)c1: > 100 µM
- O=S(=O)(Nc1ccc2oc(-c3ccccc3)nc2c1)c1ccc(O)cc1: 88 µM
- O=[N+]([O-])c1cc(S(=O)(=O)Nc2ccc(-c3nc4ccccc4o3)cc2)ccc1Cl: 17 µM
- O=S(=O)(Nc1ccc2oc(-c3ccccc3)nc2c1)c1ccccc1: > 100 µM
- O=S(=O)(Nc1ccc(-c2nc3cc(NS(=O)(=O)c4ccccc4F)ccc3o2)cc1)c1ccccc1F: 57 µM
- O=S(=O)(Nc1ccc2oc(-c3ccc(NS(=O)(=O)c4cccc5nonc45)cc3)nc2c1)c1ccc(Cl)s1: 13 µM
- O=S(=O)(Nc1ccc2oc(-c3ccccc3)nc2c1)c1cccc(C(F)(F)F)c1: > 100 µM
- O=S(=O)(Nc1ccc2oc(-c3ccccc3)nc2c1)c1ccccc1O: 85 µM
- O=S(=O)(Nc1ccc(-c2nc3ccccc3o2)cc1)c1ccc(Cl)c(C(F)(F)F)c1: 12 µM
- O=S(=O)(Nc1ccc(-c2nc3cc(NS(=O)(=O)c4ccccc4O)ccc3o2)cc1)c1ccccc1O: 18 µM
- CCc1ccc(S(=O)(=O)Nc2ccc(-c3nc4ccccc4o3)cc2)cc1: > 100 µM
- O=S(=O)(Nc1ccc2oc(-c3ccccc3)nc2c1)c1cccc(Cl)c1: > 100 µM
- O=S(=O)(Nc1ccc(-c2nc3ccccc3o2)cc1)c1ccc(C(F)(F)F)cc1: 50 µM
- O=S(=O)(Nc1ccc2oc(-c3ccccc3)nc2c1)c1ccc(Cl)c(C(F)(F)F)c1: > 100 µM
- N#Cc1ccc(S(=O)(=O)Nc2ccc(-c3nc4cc(NS(=O)(=O)c5ccc(C#N)cc5)ccc4o3)cc2)cc1: 49 µM
- COc1ccc(Cl)cc1S(=O)(=O)Nc1ccc2oc(-c3ccccc3)nc2c1: > 100 µM
- C=Cc1ccc(S(=O)(=O)Nc2ccc3oc(-c4ccccc4)nc3c2)cc1: > 100 µM
- O=S(=O)(Nc1ccc2oc(-c3ccccc3)nc2c1)c1ccc(F)c(C(F)(F)F)c1: 69 µM
- COc1ccc(S(=O)(=O)Nc2ccc(-c3nc4ccccc4o3)cc2)cc1: > 100 µM
- COc1ccccc1S(=O)(=O)Nc1ccc2oc(-c3ccccc3)nc2c1: > 100 µM
- COc1ccccc1S(=O)(=O)Nc1ccc(-c2nc3ccccc3o2)cc1: > 100 µM
